test: toxicity test (LD50); details: in vivo, species and route not given
parameter-measured: LD50 (mg/kg)
Could you give me the number in mg/kg? Just the number is fine.

Please look up its LD50: CN(C)CCP1(=S)CCCc2ccccc21 (stereo not shown) 170
